# residual activity annotations
# Subject Of Test: Testis-specific serine/threonine-protein kinase 1 (Homo sapiens)
# Test Context: at 1 µM
A number alone suffices; assume %.

Line Notation: O=C1NC(=O)/C(=C\c2ccc3nccnc3c2)S1
residual activity / %: 92
--
Line Notation: CO[C@H]1C[C@@H]2CC[C@@H](C)[C@@](O)(O2)C(=O)C(=O)N2CCCC[C@H]2C(=O)O[C@H]([C@H](C)C[C@@H]2CC[C@@H](O)[C@H](OC)C2)CC(=O)[C@H](C)/C=C(\C)[C@@H](O)[C@@H](OC)C(=O)[C@H](C)C[C@H](C)/C=C/C=C/C=C/1C
residual activity / %: 86
--
Line Notation: Oc1ccc(Nc2nc(-c3ccc(Cl)cc3)cs2)cc1
residual activity / %: 110

**Q:** Please report the recorded residual activity for `Cc1cccc(-c2[nH]c(C(C)(C)C)nc2-c2ccc3c(c2)OCO3)n1` .
**A:** 101

**Q:** Recorded residual activity of `Cc1ccc(S(=O)(=O)/C=C/C#N)cc1` , please.
**A:** 91

---

# Subject Of Test: Inhibitor of nuclear factor kappa-B kinase subunit alpha (Homo sapiens)
# Test Context: at 10 µM
Property: residual activity; scope: individual molecules
Lab book: enter the figure in %, no units written.

Line Notation: Nc1cccc(-c2cc3c(Oc4cccc(O)c4)ncnc3[nH]2)c1
Value Units: %
residual activity: 78

**Q:** Bench note: what residual activity did `Cn1cnc2cc3c(Nc4cccc(Br)c4)ncnc3cc21` show?
**A:** 104

**Q:** Requested read-out: residual activity. Entry: `N#Cc1cnc2cnc(NCc3cccnc3)cc2c1Nc1ccc(F)c(Cl)c1`
**A:** 58

**Q:** Look up residual activity: `O=C1c2ccccc2-[n+]2ccc3c([nH]c4ccccc43)c21`
**A:** 108

**Q:** Reported residual activity for `CO[C@@H]1[C@H](N(C)C(=O)c2ccccc2)C[C@H]2O[C@]1(C)n1c3ccccc3c3c4c(c5c6ccccc6n2c5c31)C(=O)NC4` : what is it?
**A:** 91

**Q:** // residual activity lookup, key: `Cn1cc(/C=C2\C(=O)Nc3ccc(S(N)(=O)=O)cc32)c2ccccc21`
**A:** 92

**Q:** Requested field: residual activity. Item: `CC[n+]1c(/C=C/N(C)c2ccccc2)n(-c2ccccc2)c2ccc(-c3nc4ccccc4s3)cc21`
**A:** 93

**Q:** Sample `Cc1nc2cc3nc(-c4cccs4)cnc3cc2n1C` — what was its residual activity?
**A:** 106

**Q:** Request the reported residual activity associated with `Cc1ccc(S(=O)(=O)/C=C/C#N)cc1`
**A:** 100

---

# Subject Of Test: Dual specificity protein kinase CLK3 (Homo sapiens)
# Test Context: at 10 µM
Reported residual activity by item:
All answers are understood in %, so give the number only.

Line Notation: Cc1nc2cc3nc(-c4cccs4)cnc3cc2n1C
Measure Name: residual activity
Result Number: 53
//
Line Notation: O=C1c2ccccc2-[n+]2ccc3c([nH]c4ccccc43)c21
Measure Name: residual activity
Result Number: 72
//
Line Notation: O=c1c2ccccc2[nH]c(=S)n1CCN1CCC(=C(c2ccc(F)cc2)c2ccc(F)cc2)CC1
Measure Name: residual activity
Result Number: 64
//
Line Notation: COc1cc2ncc(-c3ccccc3)nc2cc1OC
Measure Name: residual activity
Result Number: 81
//
Line Notation: CNc1cc2c(Nc3cccc(Br)c3)ncnc2cn1
Measure Name: residual activity
Result Number: 33

**Q:** Could you tell me which residual activity is on file for `O=C(O)c1ccc2c3c1cccc3c(=O)n1c3ccccc3nc21` ?
**A:** 32

**Q:** State the recorded residual activity for this entry: `CO[C@H]1[C@@H](OC)C[C@H](C)[C@@H](OC)C2=CC(=O)C=C(NC(=O)/C(C)=C/C=C/[C@H](OC)[C@@H](OC(N)=O)/C(C)=C/[C@@H]1C)C2=O`
**A:** 89

**Q:** Tell me the measured residual activity of `Cc1nc(-c2ccccc2)c(-c2ccncc2)o1` , please.
**A:** 84

**Q:** Fill blank: measured residual activity of the molecule `O=c1cc(-c2cccc3c2Sc2ccccc2S3)oc(N2CCOCC2)c1` is ____.
**A:** 87

**Q:** Which value of residual activity has been reported for `CC[n+]1c(/C=C/N(C)c2ccccc2)n(-c2ccccc2)c2ccc(-c3nc4ccccc4s3)cc21` in the records?
**A:** 58

---

# Subject Of Test: Serine/threonine-protein kinase mTOR (Homo sapiens)
# Test Context: at 10 µM
Entry flag: Condition met if residual activity reaches 90%; Condition not met if it does not.

Line Notation: Nc1cccc(-c2cc3c(Oc4cccc(O)c4)ncnc3[nH]2)c1
Subject Of Test: Serine/threonine-protein kinase mTOR (Homo sapiens)
Category Label: Condition met
//
Line Notation: O=C1NC(=O)/C(=C/c2ccc3c(c2)OC(F)(F)O3)S1
Subject Of Test: Serine/threonine-protein kinase mTOR (Homo sapiens)
Category Label: Condition met
//
Line Notation: Cn1nc2c3c(cccc31)C(=O)c1ccccc1-2
Subject Of Test: Serine/threonine-protein kinase mTOR (Homo sapiens)
Category Label: Condition not met
//
Line Notation: COc1cc2ncnc(Nc3ccc(O)c(Br)c3)c2cc1OC
Subject Of Test: Serine/threonine-protein kinase mTOR (Homo sapiens)
Category Label: Condition met
//
Line Notation: CC(C)n1cnc2c(NCc3ccccc3)nc(NCCCO)nc21
Subject Of Test: Serine/threonine-protein kinase mTOR (Homo sapiens)
Category Label: Condition met

**Q:** Item `Nc1n[nH]c2nnc(-c3c(-c4ccccc4)nn4ccccc34)cc12` with residual activity of 90% or above?
**A:** Condition not met

**Q:** Does the reported residual activity for `COc1cc2ncnc(Nc3ccc(Oc4ccccc4)cc3)c2cc1OC` fall at or above the 90% mark?
**A:** Condition met

**Q:** Quick check: does `Ic1cccc(CSc2nnc(-c3ccncc3)o2)c1` have residual activity greater than or equal to 90%?
**A:** Condition met

**Q:** Quick check: does `c1ccc2c(-c3ccncc3)c[nH]c2c1` have residual activity greater than or equal to 90%?
**A:** Condition met

---

# Subject Of Test: Ephrin type-A receptor 7 (Homo sapiens) (UniProt Q15375)
# Sequence (Q15375 28-998 limits assumed): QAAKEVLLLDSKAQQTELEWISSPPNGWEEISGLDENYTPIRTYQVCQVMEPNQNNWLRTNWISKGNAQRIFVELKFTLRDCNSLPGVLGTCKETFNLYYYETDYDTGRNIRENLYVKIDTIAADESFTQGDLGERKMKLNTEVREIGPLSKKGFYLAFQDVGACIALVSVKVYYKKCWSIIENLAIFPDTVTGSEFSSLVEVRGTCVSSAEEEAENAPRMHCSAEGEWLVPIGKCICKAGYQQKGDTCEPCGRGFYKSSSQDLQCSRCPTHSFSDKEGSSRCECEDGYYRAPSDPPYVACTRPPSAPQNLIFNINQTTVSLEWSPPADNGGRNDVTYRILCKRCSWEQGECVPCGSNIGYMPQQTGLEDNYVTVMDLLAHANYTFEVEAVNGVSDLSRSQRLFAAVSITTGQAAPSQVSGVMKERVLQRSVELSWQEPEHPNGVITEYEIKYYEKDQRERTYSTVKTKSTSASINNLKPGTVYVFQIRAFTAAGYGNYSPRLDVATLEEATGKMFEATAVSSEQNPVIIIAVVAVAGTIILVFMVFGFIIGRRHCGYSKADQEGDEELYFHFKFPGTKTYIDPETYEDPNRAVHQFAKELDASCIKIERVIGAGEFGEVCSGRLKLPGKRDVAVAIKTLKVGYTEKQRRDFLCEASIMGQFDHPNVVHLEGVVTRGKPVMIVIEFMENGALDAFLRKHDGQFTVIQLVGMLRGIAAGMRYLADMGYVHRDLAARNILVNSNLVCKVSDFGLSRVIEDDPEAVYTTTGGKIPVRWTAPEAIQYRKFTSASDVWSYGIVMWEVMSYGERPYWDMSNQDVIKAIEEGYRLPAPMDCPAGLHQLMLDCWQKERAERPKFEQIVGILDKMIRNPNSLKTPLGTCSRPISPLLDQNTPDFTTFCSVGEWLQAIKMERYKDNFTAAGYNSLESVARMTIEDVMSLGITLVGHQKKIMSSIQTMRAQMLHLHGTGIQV
# Test Context: at 10 µM
residual activity under 80% gets true, anything at or over 80% gets false.

Line Notation: CCN(CC)C(=O)c1ccc(Nc2nc(OCC3CCCCC3)c3nc[nH]c3n2)cc1
Subject Of Test: Ephrin type-A receptor 7 (Homo sapiens) (UniProt Q15375)
Category Label: true

**Q:** Please check: residual activity for `Cc1ccc(NC2=CC(=O)c3sc(C)nc3C2=O)cc1` , strictly under 80% or not?
**A:** false

**Q:** In plain terms, does `Nc1nc(Nc2ccc(S(N)(=O)=O)cc2)nn1C(=S)Nc1c(F)cccc1F` come in under 80% for residual activity?
**A:** true

**Q:** hey, is residual activity for `COc1cc2ncc(-c3ccccc3)nc2cc1OC` lower than 80% or not?
**A:** false

**Q:** Item `N#C/C(=C(\N)Sc1ccc(N)cc1)c1ccccc1C(F)(F)F` : residual activity beneath 80%, strictly?
**A:** false

**Q:** Strictly below 80%: is that where residual activity of `CN(C)CCCn1cc(C2=C(c3c[nH]c4ccccc34)C(=O)NC2=O)c2ccccc21` sits?
**A:** false

**Q:** Lab note: confirm whether the reported residual activity for this molecule is below 80%, equality not counting. molecule: `Cc1nc2cc3nc(-c4cccs4)cnc3cc2n1C`
**A:** false

**Q:** Please indicate whether the reported residual activity of `c1ccc2c(-c3ccncc3)c[nH]c2c1` is strictly below 80%.
**A:** false

**Q:** In the record for `CCN(CC)CCCCN1c2ccccc2Oc2ccc(Cl)cc21` , is residual activity less than 80%?
**A:** false

---

Measured residual activity of individual entries
# Subject Of Test: Glycogen synthase kinase-3 beta (Homo sapiens) (UniProt P49841)
# Sequence (P49841 whole entry, looked up): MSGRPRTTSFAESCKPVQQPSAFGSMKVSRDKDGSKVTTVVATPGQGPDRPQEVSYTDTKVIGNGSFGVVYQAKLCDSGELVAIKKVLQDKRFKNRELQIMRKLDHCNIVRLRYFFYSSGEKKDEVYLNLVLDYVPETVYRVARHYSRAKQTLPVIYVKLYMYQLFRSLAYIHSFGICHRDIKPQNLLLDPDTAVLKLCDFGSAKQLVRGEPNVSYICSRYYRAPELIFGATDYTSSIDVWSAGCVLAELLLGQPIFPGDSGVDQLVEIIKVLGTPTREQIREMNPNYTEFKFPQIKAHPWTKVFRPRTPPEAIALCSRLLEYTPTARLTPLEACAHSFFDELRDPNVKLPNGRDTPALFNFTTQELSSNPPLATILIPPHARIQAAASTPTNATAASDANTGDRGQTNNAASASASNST
# Test Context: at 1 µM

Molecule: CO[C@@H]1[C@H](N(C)C(=O)c2ccccc2)C[C@H]2O[C@]1(C)n1c3ccccc3c3c4c(c5c6ccccc6n2c5c31)C(=O)NC4
Subject Of Test: Glycogen synthase kinase-3 beta (Homo sapiens) (UniProt P49841)
Result: 39%
//
Molecule: COc1cc2ncnc(N3CCN(C(=O)Nc4ccc(Oc5ccccc5)cc4)CC3)c2cc1OC
Subject Of Test: Glycogen synthase kinase-3 beta (Homo sapiens) (UniProt P49841)
Result: 99%

**Q:** Item: `CC(=O)O/N=C1\C(=C2\C(=O)Nc3cc(Br)ccc32)Nc2ccccc21` Test system: Glycogen synthase kinase-3 beta (Homo sapiens) (UniProt P49841) Read-out: residual activity Value: ?
**A:** 14%

**Q:** Param readout = residual activity; param system = Glycogen synthase kinase-3 beta (Homo sapiens) (UniProt P49841); param query = `CC(=O)c1ccc(N2CCOCC2)cc1O` ; response: value
**A:** 101%

**Q:** Reported residual activity for Glycogen synthase kinase-3 beta (Homo sapiens) (UniProt P49841), given `CNc1cc2c(Nc3cccc(Br)c3)ncnc2cn1` ?
**A:** 106%
